- Tested target: human TREM2 extracellular domain (ECD) (Homo sapiens, UniProt Q9NZC2)
- Sequence (Q9NZC2 19-174): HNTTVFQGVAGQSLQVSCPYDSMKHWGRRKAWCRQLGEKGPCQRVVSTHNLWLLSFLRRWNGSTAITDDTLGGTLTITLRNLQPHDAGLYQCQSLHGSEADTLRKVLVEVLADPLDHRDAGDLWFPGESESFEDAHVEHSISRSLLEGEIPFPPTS
Measured parameter: binding result

R18-12-25 (antibody, V domains shown) VH: AVQLVESGGGLVRPQESLKISCAASGFTFRDTAMYWVRQAPGKGLEWVARIRTKPNDYATYFADSVKGRFTISRDDSKSMVYLQMDTLKTEDTAMYYCTAPINNWDWFAYWGQGTLVTVSS VL: DIVMTQSPSSLAVSAGETVTIDCKSSQSLLYSGNQKTYLAWYQQKPGQSPKLLIYWASTRQSGVPDRFIGSGSGTDFTLTISSVQAEDLAIYYCQQYYDTPLTFGSGTKLEIK    binds
R19-11-37 (antibody, V domains shown) VH: AVQLVESGGGLVQPKESLKISCAASGFTFSNAAMYWVRQAPGKGLEWVARIRTKPNNYATYYADSVKGRFTISRDDSKSMVYLQMDNLKTEDTAMYYCIASRYGYDFDYWGQGVMVTVSS VL: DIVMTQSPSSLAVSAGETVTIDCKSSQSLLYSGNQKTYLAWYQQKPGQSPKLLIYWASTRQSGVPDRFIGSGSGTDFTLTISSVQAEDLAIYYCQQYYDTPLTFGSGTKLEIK    binds
R19-11-38 (antibody, V domains shown) VH: AVQLVESGGGLVQPKESLKISCAASGFTFSNAAMYWVRQAPGKGLEWVARIRTKPNNYATYYADSVKGRFTISRDDSKSMVYLQMDNLKTEDTAMYYCTAAFYGYYFDYWGQGVMVTVSS VL: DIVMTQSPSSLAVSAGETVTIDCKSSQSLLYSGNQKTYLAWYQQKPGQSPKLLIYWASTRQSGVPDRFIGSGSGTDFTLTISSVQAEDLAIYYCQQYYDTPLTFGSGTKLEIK    binds
